- experimental.system: Torsin-1A-interacting protein 2 (Homo sapiens) (UniProt Q8NFQ8)
- Sequence (Q8NFQ8 whole entry, looked up): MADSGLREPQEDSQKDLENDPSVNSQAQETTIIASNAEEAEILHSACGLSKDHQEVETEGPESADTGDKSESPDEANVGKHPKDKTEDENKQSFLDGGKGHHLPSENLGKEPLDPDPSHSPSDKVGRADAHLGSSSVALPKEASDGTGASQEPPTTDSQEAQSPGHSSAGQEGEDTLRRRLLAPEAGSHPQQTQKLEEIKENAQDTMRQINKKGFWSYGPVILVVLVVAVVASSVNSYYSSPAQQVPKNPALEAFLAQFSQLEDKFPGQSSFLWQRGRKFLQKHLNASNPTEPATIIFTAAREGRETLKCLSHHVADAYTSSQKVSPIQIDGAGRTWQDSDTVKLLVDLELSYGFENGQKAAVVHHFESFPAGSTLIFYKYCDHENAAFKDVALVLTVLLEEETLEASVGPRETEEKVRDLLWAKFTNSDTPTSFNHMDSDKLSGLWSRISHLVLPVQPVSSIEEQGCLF
- test: LULL1 binders on small-molecule microarray, primary screen, cell lysate, human LULL1 lysate, 635/667 nm fluorescence (AID 1092);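 also: probe is lysate of COS7 cells overexpressing human LULL1; score merges per-feature 667 nm fluorescence with signal-to-noise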
- run.parameters: hLULL1 lysate binding, 635 nm fluorescence, higher = more signal
Parameter: composite z-score. Scope: all listed entries.
Format: numeric value only, no unit, no commentary.

Would you please look over these solved cases?
{"structure.as.smiles": "Cc1ccc(S[C@]2(C(=O)NCCCN(C)C)CC(=O)N(Cc3ccccc3Cl)[C@@H]2c2ccc(CO)cc2I)cc1", "composite z-score": 0.605}
{"structure.as.smiles": "COc1ccc(C#Cc2ccc3c(c2)[C@]2(C(=O)N3)[C@H](C(=O)Nc3nc4ccccc4s3)[C@H]3C(=O)O[C@H](c4ccccc4)[C@H](c4ccccc4)N3[C@@H]2c2ccc(OCCO)cc2)cc1", "composite z-score": 2.7}

Proceeding to the next compound to report its composite z-score.
Endpoint output: composite z-score of CC(C)C[C@@H]1NC(=O)[C@@H]2C[C@H](C(=O)NCCCC[N+](C)(C)C)[C@H](c3ccc(O)cc3)N2C1=O . Value?
1.76

###

- test: E. coli growth modulation, two-sided OD650, primary screen, E. coli filamentation project, strain DRC41, 24 h (AID 1093);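 also: MC1000 strain lacking acrAB efflux and sulA so SOS filamentation is blocked; test concentration not given here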
- run.parameters: OD650, 24 h, higher = more signal, called active from +8 up or from −8 down
measured.property: z-score
Format: numeric value only, no unit, no commentary.

{"molecule": "COCCOC(=O)N1C(=O)[C@@]2(c3cc(C#CC4(O)CCCCCC4)ccc31)[C@H](c1ccc(OCCO)cc1)N1[C@H](c3ccccc3)[C@H](c3ccccc3)OC(=O)[C@H]1[C@@H]2C(=O)N1CCCCCCC1", "value.observed": 0.436}

Endpoint output: z-score of [N-]=[N+]=NCc1ccccc1C[C@@]1(C(=O)O)N=C(c2ccc(OCCCO)cc2)O[C@@H]1c1ccccc1CN=[N+]=[N-] . Value?
0.345

Endpoint output: z-score of COC(=O)[C@@]1(Cc2ccc(F)cc2)[C@H]2c3cc(C(=O)N(C)C)n(CCn4cc([N+](=O)[O-])nc4C)c3C[C@H]2CN1C(=O)c1ccccc1 . Value?
-1.66

###

Parameter: composite z-score. Scope: all listed entries.
- test: small-molecule microarray binders of probe aEGFR, primary screen, biochemical, biotinylated probe, 635/667 nm fluorescence (AID 1097);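 also: probe is a biotinylated anti-EGFR antibody binding compounds printed on slides; score combines fluorescence near 667 nm and signal to noise of each spot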
- run.parameters: higher = more signal
Format: numeric value only, no unit, no commentary.

Would you please look over these solved cases?
{"compound": "N#Cc1ccc(C(O)C2C=CC3C(=O)NC(=O)C3N2Nc2ccccn2)cc1 (centres undefined)", "value.observed": -0.0594}
{"compound": "COC(=O)C(CC#Cc1ccc2c(c1)[C@]1(C(=O)N2)[C@H](c2ccc(O)cc2)N2[C@H](c3ccccc3)[C@H](c3ccccc3)OC(=O)[C@H]2[C@@H]1C(=O)N1CCc2cc(OC)c(OC)cc2C1)C(=O)OC", "value.observed": 0.232}
{"compound": "CC(C)C(=C=CC[C@@H](O)c1ccc(OCCO)cc1)CCO", "value.observed": -0.146}

Endpoint output: composite z-score of COc1ccc([Si](C)(C)[C@H]2[C@H](CC(=O)N3Cc4ccccc4C[C@H]3CO)O[C@@]3(C(=O)N(Cc4cccc(N5C(=O)c6cccc7cccc5c67)c4)c4ccccc43)[C@@H]2C)cc1 . Value?
-0.122

###

- test: small-molecule microarray binders of probe aCHRDL2, primary screen, biochemical, biotinylated probe, 635/667 nm fluorescence (AID 1100)
- run.parameters: higher = more signal
Outcome: satisfied for composite z-score of at least 0.2; not satisfied for anything lower.

{"compound": "CCOC(=O)C1=CC[C@@H](c2ccccc2Cl)N(S(=O)(=O)c2ccc(C)cc2)[C@H]1c1cccc(OC)c1", "class.name": "not satisfied"}
{"compound": "Cc1ccc(S(=O)(=O)N2[C@@H](c3ccccc3)C(C(=O)O)=CC[C@H]2c2ccc(C#N)cc2)cc1", "class.name": "satisfied"}
{"compound": "CC(C)(C)N1CC=CC23O[C@@H]4/C=C\\CCCOC(=O)C4[C@H]2C(=O)N(CCCCCCO)[C@@H]3C1=O (some centres undefined)", "class.name": "satisfied"}
{"compound": "O=C1C2C=CC(C(O)C(c3ccccc3)c3ccccc3)N(Nc3ccccc3)C2C(=O)N1c1ccccc1 (centres undefined)", "class.name": "satisfied"}
{"compound": "COCCCNC(=O)[C@@H]1c2ccccc2C(=O)N(C2CCCCC2)[C@H]1c1ccc(CO)cc1", "class.name": "satisfied"}
{"compound": "CC=CC(O)C1C=CC2C(=O)N(C)C(=O)C2N1NC(=O)OC(C)(C)C (centres undefined)", "class.name": "not satisfied"}
{"compound": "CN(C)C(=O)[C@]1(Cc2ccccc2CN=[N+]=[N-])N=C(c2ccc(OCCCO)cc2)O[C@@H]1c1ccccc1N=[N+]=[N-]", "class.name": "satisfied"}
{"compound": "CC(C)=CCN(C(=O)C#Cc1ccccc1)[C@H](CO)c1ccccc1", "class.name": "not satisfied"}

Is composite z-score at least 0.2? Consider CC(C)N1CC=CC23O[C@@H]4C=CCCOC(=O)C4[C@H]2C(=O)N(CCCCCO)[C@@H]3C1=O (some centres undefined)
satisfied

Is composite z-score at least 0.2? Consider COC(=O)[C@@]1(Cc2ccccc2)[C@@H]2[C@@H](CC(=O)[C@H]2CC(=O)C(=O)N(C)C)CN1C(=O)c1ccccc1
satisfied

Is composite z-score at least 0.2? Consider C=CCC(OC(C)=O)[C@@H]1[C@@H](N(Cc2cc3ccccc3o2)C(=O)c2cccc3ccccc23)c2cc(OCCCO)ccc2N1C(=O)c1ccc2ccccc2c1 (some centres undefined)
satisfied

###

- test: basal S. cerevisiae growth modulation, no modifier, primary screen, OD600, strain BY4716, 24 h, basal condition (AID 1173)
- run.parameters: OD600, 24 h, higher = more signal, called active from +8 up or from −8 down
Parameter: z-score. Scope: all listed entries.
Format: numeric value only, no unit, no commentary.

Would you please look over these solved cases?
{"molecule": "CC(C)C(=C=CC[C@@H](O)c1cccc(OCCO)c1)CCO", "z-score": -1.15}
{"molecule": "O=C1N(Cc2ccccc2)c2ccccc2[C@H]2OC(c3ccc(OCCCO)cc3)=N[C@@]12Cc1ccccc1", "z-score": -0.084}

Endpoint output: z-score of CCN(CC)c1ccc(N2CC=CC34O[C@@H]5C=CCOC(=O)[C@@H]5[C@H]3C(=O)N(CCO)[C@@H]4C2=O)cc1 (some centres not stated) . Value?
-0.0592

###

- experimental.system: Dihydroorotate dehydrogenase (quinone), mitochondrial (Plasmodium falciparum (isolate 3D7)) (UniProt Q08210)
- Sequence (Q08210 whole entry, looked up): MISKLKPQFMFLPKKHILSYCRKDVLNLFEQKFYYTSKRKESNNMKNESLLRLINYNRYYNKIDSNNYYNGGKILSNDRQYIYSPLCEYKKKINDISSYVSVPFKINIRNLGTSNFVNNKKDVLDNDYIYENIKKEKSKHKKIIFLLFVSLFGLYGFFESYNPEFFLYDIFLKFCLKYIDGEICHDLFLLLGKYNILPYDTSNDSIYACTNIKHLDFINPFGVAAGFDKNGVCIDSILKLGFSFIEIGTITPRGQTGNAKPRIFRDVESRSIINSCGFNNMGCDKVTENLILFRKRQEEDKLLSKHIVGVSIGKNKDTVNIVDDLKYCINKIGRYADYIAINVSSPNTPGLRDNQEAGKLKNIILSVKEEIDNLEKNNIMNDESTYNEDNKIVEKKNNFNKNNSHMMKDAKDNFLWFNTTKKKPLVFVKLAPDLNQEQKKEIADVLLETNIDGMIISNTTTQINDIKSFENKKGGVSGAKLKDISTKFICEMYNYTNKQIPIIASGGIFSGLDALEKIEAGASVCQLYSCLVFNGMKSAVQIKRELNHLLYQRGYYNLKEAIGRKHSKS
- test: PfDHODH enzyme inhibitors, primary screen, biochemical, C-terminal His tag, absorbance 600 nm (AID 1175);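 also: recombinant parasite enzyme with a five histidine tag at its C terminus; test concentration not given here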
- run.parameters: DCIP absorbance 600 nm, higher = more signal, called active from +8 up or from −8 down
Each entry belongs to exactly one class, chosen by where its composite z-score falls: label 0 = under -0.9, label 1 = from -0.9 up to -0.07, label 2 = -0.07 and over

See these solved cases before continuing.
{"molecule": "CCOC(=O)C1=CCC(c2cc3ccccc3[nH]2)N(S(=O)(=O)c2ccccc2[N+](=O)[O-])C1 (stereo not drawn)", "class.name": "label 1"}
{"molecule": "COCCOC(=O)N1C(=O)[C@@]2(c3ccccc31)[C@H](C(=O)N1CCCCCCC1)[C@H]1C(=O)O[C@H](c3ccccc3)[C@H](c3ccccc3)N1[C@@H]2c1ccc(O)cc1", "class.name": "label 1"}
{"molecule": "CC(C)[C@@H](C(=O)O)n1cc(-c2ccccc2)nn1", "class.name": "label 1"}
{"molecule": "CC(C)C[C@H]1NC(=O)[C@@H](C)NC(=O)[C@@]23C(=O)N[C@@H](Cc4ccccc4)C2[C@H](C)[C@@]2(C)O[C@H]2C3/C=C/C/C=C\\CNC1=O (stereo partly drawn)", "class.name": "label 0"}
{"molecule": "COc1ccc([Si](C)(C)[C@H]2[C@H](CCn3cc([C@H](O)c4ccccc4)nn3)O[C@@]3(C(=O)N(C)c4c(Br)cc(C)cc43)[C@@H]2C)cc1", "class.name": "label 2"}
{"molecule": "Cc1c(NC(=O)/C(C#N)=C/c2ccc(Cl)cc2)c(=O)n(-c2ccccc2)n1C", "class.name": "label 0"}

Please find the next molecule below.
Exam item: assign COCCCNC(=O)[C@@H]1c2ccccc2C(=O)N(Cc2cc(C(F)(F)F)cc(C(F)(F)F)c2)[C@H]1c1ccc(CO)cc1 to the correct category.
label 2

###

- test: COS7 lysate on small-molecule microarray, probe aHis, 635 nm (AID 1123);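 also: z-score combines 667nm fluorescence intensity with signal-to-noise per printed compound spot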
- run.parameters: COS7 cell lysate, fluorescence, higher = more signal
measured.property: composite z-score
Format: numeric value only, no unit, no commentary.

Would you please look over these solved cases?
{"compound": "COCCOC(=O)N1C(=O)[C@@]2(c3ccccc31)[C@H](C(=O)N1CCCCCCC1)[C@H]1C(=O)O[C@H](c3ccccc3)[C@H](c3ccccc3)N1[C@@H]2c1ccc(O)cc1", "value.observed": 3.97}
{"compound": "CC1(C)OC[C@@]23C=C(Br)[C@@H](C[C@H]12)[C@@]1(CO1)C3=O", "value.observed": -0.0842}
{"compound": "C=CCC(OC(C)=O)[C@@H]1[C@@H](N(Cc2cc3ccccc3o2)C(=O)Cc2ccc(OC)cc2)c2cc(OCCCO)ccc2N1C(=O)Cc1ccc2ccccc2c1 (some centres undefined)", "value.observed": 0.491}
{"compound": "COc1ccc([Si](C)(C)[C@@H]2[C@@H](CC(=O)N(CCO)Cc3ccccc3)O[C@]3(C(=O)N(Cc4ccc(N5CCC5=O)cc4)c4ccccc43)[C@H]2C)cc1", "value.observed": 0.711}
{"compound": "COc1ccc(C(O)C2C=CC3C(=O)N(C)C(=O)C3N2Nc2ccc([N+](=O)[O-])cc2[N+](=O)[O-])cc1OCc1ccccc1 (centres undefined)", "value.observed": 2.36}
{"compound": "COCC(=C=CC[C@@H](O)c1cccc(OCCO)c1)C[C@@H](O)COCc1ccccc1", "value.observed": 3.68}

Endpoint output: composite z-score of NCCCC[C@@H]1NC(=O)[C@H]2C[C@@H](C(=O)NCc3ccc(F)cc3)[C@@H](c3cccc(OCCO)c3)N2C1=O . Value?
1.46

Endpoint output: composite z-score of CC(=O)NCCCC[C@@H]1NC(=O)[C@@H]2C[C@H](C(=O)NCCCCCC[N+](C)(C)C)[C@H](c3ccc(O)cc3)N2C1=O . Value?
1.17

Endpoint output: composite z-score of O=C1NC(=O)C2C1C=CC(C(O)c1ccc(F)cc1)N2Nc1ccccn1 (centres undefined) . Value?
2.77

Endpoint output: composite z-score of COC(=O)c1c(CC[C@@H](CO)NC(=O)N[C@@H](Cc2ccccc2)Cn2cc(-c3cncn3C)nn2)oc(C(C)=O)c1C(=O)OC . Value?
1.95

Endpoint output: composite z-score of CCOC(=O)C1=C(C(=O)OCC)N(S(=O)(=O)CC[Si](C)(C)C)[C@H](c2ccccc2)CC1 . Value?
0.727

Endpoint output: composite z-score of C=C(C(=O)CC[C@@H](OC(C)=O)c1cccc(OCCO)c1)C(C)C . Value?
1.82

Endpoint output: composite z-score of CO[C@H]1O[C@H](CO)[C@@H](OC(=O)Nc2ccc3c(c2)OCO3)[C@@H]2OC(=O)[C@@H](Cc3ccccc3)C/C=C/C[C@H](Cc3ccccc3)C(=O)O[C@@H]12 . Value?
0.859

Endpoint output: composite z-score of CC(C)C[C@H]1NC(=O)[C@H](Cc2ccccc2)NC(=O)[C@@]23C(=O)N[C@@H](Cc4ccccc4)C2[C@H](C)[C@@]2(C)O[C@H]2C3/C=C/C/C=C\CNC1=O (some centres undefined) . Value?
1.14

Every entry's value here was drawn from PubChem BioAssay.
